Molecular target: T1, NativeRPtag(large)_with_Tags_and_Cys (Thermoanaerobacter tengcongensis)
T1 chain: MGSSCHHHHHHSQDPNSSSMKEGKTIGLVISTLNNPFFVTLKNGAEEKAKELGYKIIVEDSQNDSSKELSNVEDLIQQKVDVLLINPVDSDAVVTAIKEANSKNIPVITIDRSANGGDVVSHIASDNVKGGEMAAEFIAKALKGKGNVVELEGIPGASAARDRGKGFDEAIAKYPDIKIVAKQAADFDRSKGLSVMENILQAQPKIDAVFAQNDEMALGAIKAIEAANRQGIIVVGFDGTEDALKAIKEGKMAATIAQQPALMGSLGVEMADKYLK
Assay: fluorescence anisotropy; acetone (20%)
Quantity Measured: Kd (nM)
Numbers only; they are read as nM.

Incoming: If you can, please state the reported Kd value of PAELKLITK (modifications not checked) [RPtag(small) Nd8, Cd4] .
Outgoing: 22
